Cited source: the supplement of paper PMC6331611

- Test system: Salmonella enterica serovar Typhimurium SL1344
- Test: normalized intracellular growth (luminescence, IQM-normalized) in RAW264.7 macrophages (fraction of plate interquartile mean); higher = more bacterial growth (less inhibition)
- Measurement context: 10 µM, time point: Tfinal (~6 h)
The full ranking holds about 1,600 compounds; the median of “normalized intracellular growth (luminescence, IQM-normalized) in RAW264.7 macrophages” is about 1, and the lowest 2% start at about 0.43. For the sample, the lowest values were picked, then their nearest neighbours and some compounds at random.
Classes are defined on normalized intracellular growth with ranges zone 1 = under 0.8, zone 2 = from 0.8 up to 1, zone 3 = 1 and over

Input "C[C@@H]1NC(=O)[C@@H](N)CNC(=O)[C@H](C2CCNC(=N)N2)NC(=O)/C(=C/NC(N)=O)NC(=O)[C@H](CNC(=O)CC(N)CCCN)NC1=O.N=C1NCC[C@H]([C@@H]2NC(=O)/C(=C/NC(N)=O)NC(=O)[C@H](CNC(=O)C[C@@H](N)CCCN)NC(=O)[C@H](CO)NC(=O)[C@@H](N)CNC2=O)N1" ; output its category
zone 2

In plain terms, what class is "CN(C)c1ccc2nc3ccc(=[N+](C)C)cc-3sc2c1" ?
zone 3

Which category fits this record: CC1CCc2c(N3CCC(O)CC3)c(F)cc3c(=O)c(C(=O)O)cn1c23 (stereo not drawn)
zone 1

Band for the recorded normalized intracellular growth of "O=C(O)c1cc(O)c2c(c1)[C@H]([C@H]1c3cc(C(=O)O)cc(O)c3C(=O)c3c(O[C@@H]4O[C@H](CO)[C@@H](O)[C@H](O)[C@H]4O)cccc31)c1cccc(O[C@@H]3O[C@H](CO)[C@@H](O)[C@H](O)[C@H]3O)c1C2=O" ?
zone 2

Which of the defined bands does the recorded normalized intracellular growth of "NC(=O)c1cc[n+](CC2=C(C(=O)O)N3C(=O)[C@@H](NC(=O)[C@@H](c4ccccc4)S(=O)(=O)[O-])[C@H]3SC2)cc1" sit within?
zone 3

Lab log: "O=C(O)CN1C(=O)c2cccc3cccc(c23)C1=O" — assign normalized intracellular growth category
zone 3

Which of the defined bands does the recorded normalized intracellular growth of "C[C@]12C=CC(=O)C=C1CC[C@@H]1[C@@H]2[C@@H](O)C[C@@]2(C)[C@H]1CC[C@]2(O)C(=O)CO" sit within?
zone 2

Which band does "C=C[C@H]1CN2CC[C@H]1C[C@H]2[C@H](O)c1ccnc2ccc(OC)cc12" fall in?
zone 2

Any idea which band "C[C@]12C=CC(=O)C=C1CC[C@@H]1[C@@H]2[C@@H](O)C[C@@]2(C)[C@H]1CC[C@]2(O)C(=O)COP(=O)(O)O" is in?
zone 3

Into which bin does this compound go? OC[C@H]1O[C@@H](O[C@@H]2[C@@H](CO)OC(O)(CO)[C@H]2O)[C@H](O)[C@@H](O)[C@H]1O (mixture of isomers)
zone 2

Hello team, could you let me know which band the following compound falls into: "C[C@H]1C[C@@H]2[C@H]([C@@H](O)C[C@@]3(C)[C@H]2CC[C@]3(O)C(=O)CO)[C@@]2(C)C=CC(=O)C=C12"
zone 1

// bin(item) where item = "O=c1[nH]c(=O)n([C@H]2C[C@H](O)[C@@H](CO)O2)cc1F"
zone 1

Which normalized intracellular growth band matches "OC[C@H]1O[C@H](O[C@]2(CCl)O[C@H](CCl)[C@@H](O)[C@@H]2O)[C@H](O)[C@@H](O)[C@H]1Cl" ?
zone 1

In plain terms, what class is "Nc1nc(=O)[nH]cc1F" ?
zone 3

Which of the defined bands does the recorded normalized intracellular growth of "C[C@H](N[C@@H](CCc1ccccc1)C(=O)O)C(=O)N1Cc2ccccc2C[C@H]1C(=O)O" sit within?
zone 3

State the band of CC1CCc2cc(F)cc3c(=O)c(C(=O)O)cn1c23 (stereo not drawn)
zone 1

// bin(item) where item = "C=C1CC[C@H](O)C/C1=C/C=C1\CCC[C@]2(C)[C@@H]([C@H](C)/C=C/[C@H](C)C(C)C)CC[C@@H]12"
zone 3

Exam item: assign Cc1cc2nc3c(=O)[nH]c(=O)nc-3n(CC(O)C(O)C(O)COP(=O)(O)O)c2cc1C (stereo not drawn) to the correct category.
zone 3

Please let me know in which category the item CC(O)CC(C)(C)O (stereo not drawn) belongs.
zone 1

Exam item: assign "O=S(=O)(O)NC1CCCCC1" to the correct category.
zone 1

Sort into band: "Nc1nc(F)nc2c1ncn2[C@@H]1O[C@H](COP(=O)(O)O)[C@@H](O)[C@@H]1O"
zone 3

// return the class label for "CC1=C(C/C=C(\C)CCC[C@H](C)CCC[C@H](C)CCCC(C)C)C(=O)c2ccccc2C1=O"
zone 3

Categorize the following entry: "CC(C)NC(=N)NC(=N)Nc1ccc(Cl)cc1"
zone 1

Sort into band: "Nc1ncn([C@@H]2O[C@H](CO)[C@@H](O)[C@H]2O)c(=O)n1"
zone 1
